TARGET OF ASSAY: Serine/threonine-protein kinase Nek5 (Homo sapiens) (UniProt Q6P3R8)
Sequence (whole entry): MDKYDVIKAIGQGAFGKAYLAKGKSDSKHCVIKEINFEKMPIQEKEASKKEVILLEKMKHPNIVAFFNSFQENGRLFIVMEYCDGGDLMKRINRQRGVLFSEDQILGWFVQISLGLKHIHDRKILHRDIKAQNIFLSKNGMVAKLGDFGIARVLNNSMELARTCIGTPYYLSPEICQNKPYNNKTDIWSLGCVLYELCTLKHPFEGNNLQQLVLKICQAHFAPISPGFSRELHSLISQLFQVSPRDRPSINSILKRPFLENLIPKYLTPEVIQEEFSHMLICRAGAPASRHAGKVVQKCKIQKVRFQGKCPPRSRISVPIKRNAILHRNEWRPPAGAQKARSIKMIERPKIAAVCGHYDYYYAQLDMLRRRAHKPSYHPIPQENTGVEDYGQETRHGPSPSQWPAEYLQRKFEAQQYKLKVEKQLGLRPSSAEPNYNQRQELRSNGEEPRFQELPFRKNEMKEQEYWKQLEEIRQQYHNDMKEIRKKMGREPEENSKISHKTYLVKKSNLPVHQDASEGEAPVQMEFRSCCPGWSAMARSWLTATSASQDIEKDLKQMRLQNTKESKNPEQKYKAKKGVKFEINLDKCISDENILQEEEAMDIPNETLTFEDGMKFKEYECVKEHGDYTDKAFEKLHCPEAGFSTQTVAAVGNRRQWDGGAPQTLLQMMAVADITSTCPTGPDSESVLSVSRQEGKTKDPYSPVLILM
ASSAY EXPLANATION: Inhibition of NEK5 (unknown origin) at 1 uM relative to control
Label satisfied when inhibition >= 3%; otherwise not satisfied.

SAMPLE SMILES: Nc1nccc2scc(-c3ccc4c(c3)CCN4C(=O)Cc3ccccc3)c12
CATEGORY LABEL: satisfied

SAMPLE SMILES: O=S(=O)(c1ccc(-c2ccnc3[nH]ccc23)cc1)N1CCCC1
CATEGORY LABEL: satisfied

SAMPLE SMILES: Cn1cc(-c2ccc3c(c2)CCN3C(=O)Cc2cc(F)cc(F)c2F)c2c(N)ncnc21
CATEGORY LABEL: satisfied

stdin: Is it the case that COc1ccc(Nc2ncc(C#N)c(Nc3ccccc3C(N)=O)n2)cc1N1CCN(C)CC1 has inhibition reaching or exceeding 3%?
stdout: not satisfied
